target_or_system: Cannabinoid receptor 2 (Homo sapiens)
Sequence (P34972 whole entry): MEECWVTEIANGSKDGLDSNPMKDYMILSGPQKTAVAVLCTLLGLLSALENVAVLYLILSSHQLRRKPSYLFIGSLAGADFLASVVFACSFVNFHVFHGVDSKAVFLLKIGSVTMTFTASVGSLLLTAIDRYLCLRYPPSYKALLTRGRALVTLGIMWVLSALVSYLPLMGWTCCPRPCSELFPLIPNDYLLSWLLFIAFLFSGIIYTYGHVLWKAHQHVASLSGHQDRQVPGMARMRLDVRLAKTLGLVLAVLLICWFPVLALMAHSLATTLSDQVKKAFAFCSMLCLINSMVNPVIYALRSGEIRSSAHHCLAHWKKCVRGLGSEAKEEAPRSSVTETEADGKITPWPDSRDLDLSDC
test_method_notes: Inhibition of beta-arrestin binding to recombinant cannabinoid CB2 receptor
Items are presented alongside their recorded Ki.
Report as a plain number; the unit nM is understood.

>  <structure_notation>
CC1(CNS(=O)(=O)C(F)(F)F)CCN(S(=O)(=O)c2cc3ccccc3n2S(=O)(=O)c2ccccc2F)CC1

>  <value_unit>
nM

>  <numeric_readout>
0.35

$$$$

Query: Report Ki for C[C@@H](NS(=O)(=O)C(F)(F)F)c1ccc(S(=O)(=O)c2cc3ccccc3n2S(=O)(=O)c2ccccc2F)cc1 please.
Response: 7.5

Query: Report Ki for C[C@H]1C[C@H](CNS(=O)(=O)C(F)(F)F)CCN1S(=O)(=O)c1cc2ccccc2n1S(=O)(=O)c1ccccc1F please.
Response: 16

Query: Report Ki for O=S(=O)(c1cc2ccccc2n1S(=O)(=O)c1ccccc1F)N1C[C@@H]2[C@@H](CNS(=O)(=O)C(F)(F)F)[C@@H]2C1 please.
Response: 9

Query: Report Ki for CC(C)(NS(=O)(=O)C(F)(F)F)C1CCN(S(=O)(=O)c2cc3ccccc3n2S(=O)(=O)c2ccccc2F)CC1 please.
Response: 171

Query: Report Ki for O=S(=O)(c1cc2ccccc2n1S(=O)(=O)c1ccccn1)N1CCC(CNS(=O)(=O)C(F)(F)F)CC1 please.
Response: 0.9

Query: Report Ki for CCCC1(CNS(=O)(=O)C(F)(F)F)CCN(S(=O)(=O)c2cc3ccccc3n2S(=O)(=O)c2ccccn2)CC1 please.
Response: 1.6
